Reference source for all entries: patent US11787785B2

experimental-target: WIZ protein (HiBit-WIZ fusion protein) (Homo sapiens, UniProt O95785+Q96SW2)
Construct: expressed in transfected cells
Sequence (O95785 whole entry, the tested form may be a part): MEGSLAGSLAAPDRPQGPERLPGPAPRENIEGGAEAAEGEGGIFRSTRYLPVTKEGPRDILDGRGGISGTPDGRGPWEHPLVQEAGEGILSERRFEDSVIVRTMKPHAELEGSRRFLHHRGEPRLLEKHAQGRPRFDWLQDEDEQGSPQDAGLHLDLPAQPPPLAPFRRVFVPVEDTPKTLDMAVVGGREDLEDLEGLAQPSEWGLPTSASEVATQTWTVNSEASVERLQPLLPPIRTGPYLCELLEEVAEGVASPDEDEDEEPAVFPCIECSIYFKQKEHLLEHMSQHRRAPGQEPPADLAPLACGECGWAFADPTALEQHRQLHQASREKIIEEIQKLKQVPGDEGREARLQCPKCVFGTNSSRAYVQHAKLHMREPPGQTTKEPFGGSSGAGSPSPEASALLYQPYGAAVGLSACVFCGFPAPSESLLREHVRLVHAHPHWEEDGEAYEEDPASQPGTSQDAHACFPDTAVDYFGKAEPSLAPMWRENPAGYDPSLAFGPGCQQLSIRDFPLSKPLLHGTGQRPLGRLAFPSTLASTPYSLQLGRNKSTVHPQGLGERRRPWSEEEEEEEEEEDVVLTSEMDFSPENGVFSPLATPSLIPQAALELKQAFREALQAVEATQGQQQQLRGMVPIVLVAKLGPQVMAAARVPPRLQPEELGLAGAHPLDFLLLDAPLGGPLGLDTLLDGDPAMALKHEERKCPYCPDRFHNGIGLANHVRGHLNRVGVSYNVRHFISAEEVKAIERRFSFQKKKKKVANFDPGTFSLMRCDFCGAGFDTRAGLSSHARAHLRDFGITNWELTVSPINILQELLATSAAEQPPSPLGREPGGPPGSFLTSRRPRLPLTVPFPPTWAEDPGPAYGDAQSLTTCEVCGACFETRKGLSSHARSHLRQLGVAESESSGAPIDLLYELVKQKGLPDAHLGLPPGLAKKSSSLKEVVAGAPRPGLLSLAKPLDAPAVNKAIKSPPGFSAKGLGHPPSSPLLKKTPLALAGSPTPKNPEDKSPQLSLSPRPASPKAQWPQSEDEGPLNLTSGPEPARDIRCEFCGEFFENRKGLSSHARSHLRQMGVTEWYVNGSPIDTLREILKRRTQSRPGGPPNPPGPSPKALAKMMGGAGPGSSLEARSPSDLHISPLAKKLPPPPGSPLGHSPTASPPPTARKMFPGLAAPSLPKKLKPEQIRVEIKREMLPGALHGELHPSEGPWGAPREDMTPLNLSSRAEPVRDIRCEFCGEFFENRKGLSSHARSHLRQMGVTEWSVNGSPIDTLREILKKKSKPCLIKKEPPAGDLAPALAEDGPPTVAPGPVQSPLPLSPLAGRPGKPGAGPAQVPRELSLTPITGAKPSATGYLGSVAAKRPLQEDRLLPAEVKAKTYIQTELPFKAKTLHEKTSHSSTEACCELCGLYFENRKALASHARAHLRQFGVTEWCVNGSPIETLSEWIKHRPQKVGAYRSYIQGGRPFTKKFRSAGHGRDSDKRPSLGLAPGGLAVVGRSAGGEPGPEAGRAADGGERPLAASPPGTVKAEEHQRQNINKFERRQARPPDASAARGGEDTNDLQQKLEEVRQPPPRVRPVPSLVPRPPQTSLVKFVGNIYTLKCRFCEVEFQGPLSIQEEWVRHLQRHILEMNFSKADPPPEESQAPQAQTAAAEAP
Sequence (Q96SW2 whole entry, the tested form may be a part): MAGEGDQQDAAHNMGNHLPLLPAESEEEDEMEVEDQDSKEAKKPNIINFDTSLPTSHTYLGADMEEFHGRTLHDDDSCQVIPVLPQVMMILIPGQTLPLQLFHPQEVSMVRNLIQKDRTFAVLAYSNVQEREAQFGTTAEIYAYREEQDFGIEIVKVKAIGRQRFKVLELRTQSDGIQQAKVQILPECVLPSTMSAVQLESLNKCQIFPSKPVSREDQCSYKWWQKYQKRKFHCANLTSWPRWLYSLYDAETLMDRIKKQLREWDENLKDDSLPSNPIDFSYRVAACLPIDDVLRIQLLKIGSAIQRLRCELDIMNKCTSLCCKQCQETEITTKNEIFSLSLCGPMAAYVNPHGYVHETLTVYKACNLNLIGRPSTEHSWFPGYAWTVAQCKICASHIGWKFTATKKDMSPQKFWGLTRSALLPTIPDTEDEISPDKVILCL
Sequence (Q16531 whole entry partner, the tested form may be a part): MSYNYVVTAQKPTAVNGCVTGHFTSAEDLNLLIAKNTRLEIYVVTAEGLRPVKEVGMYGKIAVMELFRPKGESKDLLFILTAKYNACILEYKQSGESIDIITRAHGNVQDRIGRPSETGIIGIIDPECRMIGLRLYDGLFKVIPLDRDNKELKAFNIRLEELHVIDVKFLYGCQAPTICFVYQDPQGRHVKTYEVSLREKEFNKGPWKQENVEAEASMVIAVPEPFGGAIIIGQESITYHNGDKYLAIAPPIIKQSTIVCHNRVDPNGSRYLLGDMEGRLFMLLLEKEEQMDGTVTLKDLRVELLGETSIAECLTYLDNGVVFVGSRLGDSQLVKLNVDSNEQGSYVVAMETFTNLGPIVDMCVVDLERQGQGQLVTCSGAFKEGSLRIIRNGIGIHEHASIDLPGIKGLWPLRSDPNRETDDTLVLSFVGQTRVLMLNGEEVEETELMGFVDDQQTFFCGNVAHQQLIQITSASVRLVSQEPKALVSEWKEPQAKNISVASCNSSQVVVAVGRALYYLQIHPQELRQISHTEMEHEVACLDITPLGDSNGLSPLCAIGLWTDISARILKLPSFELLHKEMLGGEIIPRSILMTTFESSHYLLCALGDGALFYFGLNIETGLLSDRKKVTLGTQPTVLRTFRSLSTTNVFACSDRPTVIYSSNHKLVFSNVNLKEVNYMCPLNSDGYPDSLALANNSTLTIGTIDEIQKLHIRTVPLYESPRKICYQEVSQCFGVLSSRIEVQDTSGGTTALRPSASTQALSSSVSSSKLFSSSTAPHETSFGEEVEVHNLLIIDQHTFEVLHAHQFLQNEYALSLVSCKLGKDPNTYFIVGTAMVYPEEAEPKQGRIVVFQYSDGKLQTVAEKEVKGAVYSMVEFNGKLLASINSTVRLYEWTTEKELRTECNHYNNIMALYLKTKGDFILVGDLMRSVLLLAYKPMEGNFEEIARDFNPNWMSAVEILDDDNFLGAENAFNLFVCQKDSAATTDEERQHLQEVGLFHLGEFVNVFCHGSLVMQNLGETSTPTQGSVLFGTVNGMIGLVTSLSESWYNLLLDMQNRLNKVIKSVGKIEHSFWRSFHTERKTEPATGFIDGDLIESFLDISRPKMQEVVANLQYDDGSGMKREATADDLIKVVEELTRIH
assay-explanation: Quantification of WIZ protein levels in HiBit tag fusion protein assay (WIZ HiBit assay in 293T cells)
Type: cell-based
recorded-conditions: WIZ HiBit assay in 293T cells; 10-point, 5-fold dose response, highest concentration 25 μM, about 18 hours; read-out: WIZ AC50
// NB: equality with 50 nM counts as f; only DC50 strictly below is t

{"compound": "Cc1cn(-c2cnn3ccc(CN4CCN(CC(C)C)[C@@H](C)C4)cc23)c(=O)[nH]c1=O [Example 359]", "class-label": "f"}
{"compound": "COCCS(=O)(=O)N1CCC(Cc2ccn3ncc(N4CCC(=O)NC4=O)c3c2)CC1 [Example 92]", "class-label": "f"}
{"compound": "CC(C)COC(=O)N1CCC(Cc2ccn3ncc(N4CCC(=O)NC4=O)c3c2)CC1 [Example 95]", "class-label": "f"}
{"compound": "COc1ccc(CN2CCC(Cc3ccn4ncc(N5CCC(=O)NC5=O)c4c3)CC2)cc1 [Example 61]", "class-label": "f"}
{"compound": "C[C@H]1CN(Cc2ccn3ncc(N4CCC(=O)NC4=O)c3c2)CCN1C[C@H]1CCC(F)(F)C1 [Example 320]", "class-label": "t"}
{"compound": "C[C@H]1CN(Cc2ccn3ncc(N4CCC(=O)NC4=O)c3c2)CCN1CC1CCCO1 (some centres unmarked) [Example 209]", "class-label": "f"}
{"compound": "C[C@@H]1CC(CN2CCC(Cc3ccn4ncc(N5CCC(=O)NC5=O)c4c3)CC2)C[C@H](C)O1 (some centres unmarked) [Example 113]", "class-label": "t"}
{"compound": "CCS(=O)(=O)N1CCN(Cc2ccn3ncc(N4CCC(=O)NC4=O)c3c2)C[C@@H]1C [Example 339]", "class-label": "f"}
{"compound": "C[C@H]1C[C@H](Cc2ccn3ncc(N4CCC(=O)NC4=O)c3c2)CCN1CC1CCCCCC1 [Example 147]", "class-label": "t"}
{"compound": "O=C1CCN(c2cnn3ccc(CC4CCN(Cc5ccncc5)CC4)cc23)C(=O)N1 [Example 28]", "class-label": "f"}
{"compound": "C[C@H]1C[C@H](Cc2ccn3ncc(N4CCC(=O)NC4=O)c3c2)CCN1CC1CCO1 (some centres unmarked) [Example 277]", "class-label": "f"}
{"compound": "C[C@H]1CN(Cc2ccn3ncc(N4CCC(=O)NC4=O)c3c2)CCN1CC1CCO1 (some centres unmarked) [Example 324]", "class-label": "f"}
{"compound": "C[C@@H]1CC(CN2CCN(Cc3ccn4ncc(N5CCC(=O)NC5=O)c4c3)CC2)C[C@H](C)O1 (some centres unmarked) [Example 193]", "class-label": "t"}
{"compound": "O=C1CCN(c2cnn3ccc(CC4CCN(CC5(C(F)(F)F)CC5)CC4)cc23)C(=O)N1 [Example 55]", "class-label": "f"}
{"compound": "O=C1CCN(c2cnn3ccc(CC4CCN(S(=O)(=O)N5CCCC5)CC4)cc23)C(=O)N1 [Example 297]", "class-label": "t"}
{"compound": "O=C1CCN(c2cnn3ccc(CC4CCN(CC5(F)CCCCC5)CC4)cc23)C(=O)N1 [Example 107]", "class-label": "t"}
{"compound": "O=C1CCN(c2cnn3ccc(CN4CCN(CCC5CCCCC5)C(=O)C4)cc23)C(=O)N1 [Example 243]", "class-label": "f"}
{"compound": "CC(C)CN1[C@@H]2CC[C@H]1CC(Cc1ccn3ncc(N4CCC(=O)NC4=O)c3c1)C2 (some centres unmarked) [Example 67]", "class-label": "f"}
{"compound": "O=C1CCN(c2cnn3ccc(CN4CCN(CC5CC5)CC4)cc23)C(=O)N1 [Example 189]", "class-label": "f"}
{"compound": "C[C@H]1C[C@H](Cc2ccn3ncc(N4CCC(=O)NC4=O)c3c2)CCN1C(=O)N1CCCC1 [Example 295]", "class-label": "t"}
{"compound": "CCS(=O)(=O)N1CC[C@@H](Cc2ccn3ncc(N4CCC(=O)NC4=O)c3c2)C[C@@H]1C [Example 283]", "class-label": "t"}
{"compound": "CC(C)CN1CCN(Cc2ccn3ncc(N4CCC(=O)NC4=O)c3c2)C[C@@H]1C(C)C [Example 229]", "class-label": "f"}

---

experimental-target: WIZ protein (HiBit-WIZ fusion protein) (Homo sapiens, UniProt O95785+Q96SW2)
Construct: expressed in transfected cells
assay-explanation: Quantification of WIZ protein levels in HiBit tag fusion protein assay (WIZ HiBit assay in 293T cells)
Type: cell-based
recorded-conditions: WIZ HiBit assay in 293T cells; 10-point, 5-fold dose response, highest concentration 25 μM, about 18 hours; read-out: WIZ AC50
With a cut-off of 30 nM, any DC50 strictly below it is called Satisfied; any DC50 meeting it or above is called Not satisfied.

{"input-smiles": "CC(C)(C1CCOCC1)N1CCC(Cc2ccn3ncc(N4CCC(=O)NC4=O)c3c2)CC1", "experimental-target": "WIZ protein (HiBit-WIZ fusion protein) (Homo sapiens, UniProt O95785+Q96SW2)", "class-label": "Not satisfied"}
{"input-smiles": "O=C1CCN(c2cnn3ccc(CC4CCN(CC56CC7CC(CC(C7)C5)C6)CC4)cc23)C(=O)N1", "experimental-target": "WIZ protein (HiBit-WIZ fusion protein) (Homo sapiens, UniProt O95785+Q96SW2)", "class-label": "Satisfied"}
{"input-smiles": "O=C1CCN(c2cnn3ccc(CC4CCN(Cc5ccccn5)CC4)cc23)C(=O)N1", "experimental-target": "WIZ protein (HiBit-WIZ fusion protein) (Homo sapiens, UniProt O95785+Q96SW2)", "class-label": "Not satisfied"}
{"input-smiles": "O=C1CCN(c2cnn3ccc(CC4CCN(S(=O)(=O)C5CCCC5)CC4)cc23)C(=O)N1", "experimental-target": "WIZ protein (HiBit-WIZ fusion protein) (Homo sapiens, UniProt O95785+Q96SW2)", "class-label": "Not satisfied"}
{"input-smiles": "C[C@H]1C[C@H](Cc2ccn3ncc(N4CCC(=O)NC4=O)c3c2)CCN1C[C@@H]1CCC(F)(F)C1", "experimental-target": "WIZ protein (HiBit-WIZ fusion protein) (Homo sapiens, UniProt O95785+Q96SW2)", "class-label": "Satisfied"}
{"input-smiles": "CC(C)(CC1CCOCC1)N1CCC(Cc2ccn3ncc(N4CCC(=O)NC4=O)c3c2)CC1", "experimental-target": "WIZ protein (HiBit-WIZ fusion protein) (Homo sapiens, UniProt O95785+Q96SW2)", "class-label": "Not satisfied"}
{"input-smiles": "O=C1CCN(c2cnn3ccc(CC4CCN(CC(F)(F)C5CCCCC5)CC4)cc23)C(=O)N1", "experimental-target": "WIZ protein (HiBit-WIZ fusion protein) (Homo sapiens, UniProt O95785+Q96SW2)", "class-label": "Satisfied"}
{"input-smiles": "C[C@H]1CN(Cc2ccn3ncc(N4CCC(=O)NC4=O)c3c2)CCN1C1CC2(C1)CN(C)C2", "experimental-target": "WIZ protein (HiBit-WIZ fusion protein) (Homo sapiens, UniProt O95785+Q96SW2)", "class-label": "Not satisfied"}
{"input-smiles": "O=C1CCN(c2cnn3ccc(CN4CCN(CC5CCC(F)(F)CC5)CC4)cc23)C(=O)N1", "experimental-target": "WIZ protein (HiBit-WIZ fusion protein) (Homo sapiens, UniProt O95785+Q96SW2)", "class-label": "Satisfied"}
{"input-smiles": "C[C@H]1CN(Cc2ccn3ncc(N4CCC(=O)NC4=O)c3c2)CCN1C1COC1", "experimental-target": "WIZ protein (HiBit-WIZ fusion protein) (Homo sapiens, UniProt O95785+Q96SW2)", "class-label": "Not satisfied"}
{"input-smiles": "C[C@H]1CN(Cc2ccn3ncc(N4CCC(=O)NC4=O)c3c2)CCN1CC1CCC(C)(C)CC1", "experimental-target": "WIZ protein (HiBit-WIZ fusion protein) (Homo sapiens, UniProt O95785+Q96SW2)", "class-label": "Satisfied"}

---

Reported DC50 values for the following compounds.
experimental-target: WIZ protein (HiBit-WIZ fusion protein) (Homo sapiens, UniProt O95785+Q96SW2)
Construct: expressed in transfected cells
assay-explanation: Quantification of WIZ protein levels in HiBit tag fusion protein assay (WIZ HiBit assay in 293T cells)
Assay type: cell-based
recorded-conditions: WIZ HiBit assay in 293T cells; 10-point, 5-fold dose response, highest concentration 25 μM, about 18 hours; read-out: WIZ AC50
measured-quantity: DC50 (µM)

{"compound": "O=C1CCN(c2cnn3ccc(CC4CCN(Cc5cccnc5)C4)cc23)C(=O)N1 (centres unmarked) [Example 129]", "measured-quantity": "DC50", "display-unit": "µM", "observed-result": 0.8}
{"compound": "Cc1cn(-c2cnn3ccc(C[C@@H]4CCN(CC(C)C)[C@@H](C)C4)cc23)c(=O)[nH]c1=O [Example 347]", "measured-quantity": "DC50", "display-unit": "µM", "observed-result": 0.378}
{"compound": "O=C1CCN(c2cnn3ccc(CC4CCN(CCO)CC4)cc23)C(=O)N1 [Example 35]", "measured-quantity": "DC50", "display-unit": "µM", "observed-result": 3.14}
{"compound": "Cn1cnc(CN2CCN(Cc3ccn4ncc(N5CCC(=O)NC5=O)c4c3)CC2)c1 [Example 196]", "measured-quantity": "DC50", "display-unit": "µM", "observed-result": 3.82}
{"compound": "CC1(C)CN(Cc2ccn3ncc(N4CCC(=O)NC4=O)c3c2)CCN1CC1CCOCC1 [Example 232]", "measured-quantity": "DC50", "display-unit": "µM", "observed-result": 0.206}
